Listed here: items and their measured IC50.
target: IKKε (Homo sapiens); assay: IKKe Biochemical Assay; conditions: read-out: IKKε IC50

compound	IC50
COc1cc(C(=O)N(C)C2CCN(C)C2)ccc1-c1cc2nccc(-c3ccc(OC4CCOCC4)c(C#N)c3)c2o1 (stereo not shown)	< 100 nM

INPUT: Read the entry COc1cc(C(=O)N2CCC3(CCO3)CC2)ccc1-c1cc2nccc(-c3ccc(OC4CCOCC4)c(C#N)c3)c2o1 and write its reported IC50.
OUTPUT: < 100 nM

INPUT: Quickly give me recorded IC50 for COc1cc(C(=O)NC(C)(C)CCN(C)C)cnc1-c1cc2nccc(-c3ccc(NC4CCOCC4)c(C#N)c3)c2o1
OUTPUT: < 100 nM

INPUT: Please indicate IC50 recorded for COc1cc(C(=O)N(C)C(C)(C)C)ccc1-c1cc2nccc(-c3ccc(OC4CCOCC4)c(C#N)c3)c2o1
OUTPUT: < 100 nM

INPUT: Find the measured IC50 of COc1cc(C(=O)N(C)C)ncc1-c1cc2nccc(-c3ccc(N4CCC(F)C4)c(C#N)c3)c2o1 (stereo in doubt) [Compound 390] and report it.
OUTPUT: < 100 nM

INPUT: Note IC50 for the compound shown: COc1cc(C(=O)N(C)C)cnc1-c1cc2ncc(F)c(-c3ccc(NC4CCOCC4)c(C#N)n3)c2o1
OUTPUT: 1000 to 5000 nM

INPUT: Provide one value: measured IC50 of COC(=O)c1ccc(-c2cc3nccc(-c4ccc(Oc5ccccc5F)c(C#N)c4)c3o2)cc1
OUTPUT: > 5000 nM

###

Target: UniProt:Q14164
Sequence (Q14164 1-716): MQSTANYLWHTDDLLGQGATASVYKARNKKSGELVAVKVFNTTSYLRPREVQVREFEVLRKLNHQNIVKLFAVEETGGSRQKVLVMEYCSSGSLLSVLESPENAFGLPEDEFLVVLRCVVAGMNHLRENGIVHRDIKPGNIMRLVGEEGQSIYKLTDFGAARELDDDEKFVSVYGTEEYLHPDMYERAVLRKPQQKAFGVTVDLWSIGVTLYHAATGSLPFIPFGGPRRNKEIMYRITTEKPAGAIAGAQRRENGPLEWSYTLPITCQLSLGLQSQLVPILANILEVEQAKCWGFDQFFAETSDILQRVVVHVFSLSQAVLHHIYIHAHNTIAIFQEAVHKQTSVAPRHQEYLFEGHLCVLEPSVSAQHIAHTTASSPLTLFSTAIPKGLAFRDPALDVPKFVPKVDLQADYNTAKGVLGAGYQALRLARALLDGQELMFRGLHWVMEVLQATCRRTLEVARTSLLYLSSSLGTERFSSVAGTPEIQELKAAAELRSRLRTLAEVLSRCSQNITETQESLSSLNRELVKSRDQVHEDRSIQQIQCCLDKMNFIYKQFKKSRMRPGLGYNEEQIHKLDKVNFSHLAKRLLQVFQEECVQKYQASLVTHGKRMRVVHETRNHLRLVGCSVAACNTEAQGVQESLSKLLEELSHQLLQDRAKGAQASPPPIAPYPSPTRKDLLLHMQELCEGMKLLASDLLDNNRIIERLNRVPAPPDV
Experiment: IKKe Biochemical Assay
Conditions: read-out: IKKε IC50
Counter-ions that a name gives are not always drawn.
assay-readout: IC50

compound	IC50
COc1cc(C(=O)NC2(CO)CCCC2)ccc1-c1cc2nccc(-c3ccc(OC4CCOCC4)c(C#N)c3)c2o1	< 100 nM
COc1cc(-c2cc3nccc(-c4ccc(OC5CCOCC5)c(C#N)c4)c3o2)cnc1C(=O)N(C)C	< 100 nM
COc1cc(C(=O)N2CC3COCC3C2)cnc1-c1cc2nccc(-c3ccc(NC4CCOCC4)c(C#N)c3)c2o1 (stereo not shown)	< 100 nM
COc1cc(C(=O)N(C)C)ccc1-c1cc2ncc(Cl)c(-c3ccc(NC4CCOCC4)c(C#N)c3)c2o1	100 to 1000 nM
COc1cc(-c2n[nH]c(=O)o2)ccc1-c1cc2nccc(-c3ccc(OC4CCOCC4)c(C#N)c3)c2o1	< 100 nM
CCc1cc(C(=O)N(C)C)ccc1-c1cc2nccc(-c3ccc(OC4CCOCC4)c(C#N)c3)c2o1	< 100 nM
COc1cc(C(=O)N(C)C)cnc1-c1cc2nccc(-c3ccc(NC4CCOCC4)c(C#N)c3)c2o1 [Compound 270, hydrochloride]	< 100 nM
COc1cc(C(=O)N(C)C)ccc1-c1cc2nccc(-c3ccc(OC4CN(C)C4)c(C#N)c3)c2o1	< 100 nM

INPUT: Identify measured IC50 corresponding to COc1cc(C(=O)N(C)CCO)ncc1-c1cc2nccc(-c3ccc(OC4CCOCC4)c(C#N)n3)c2o1
OUTPUT: < 100 nM

INPUT: Supply reported IC50 belonging to this compound: CN(C)C(=O)c1ccc(-c2cc3nccc(-c4ccc(OC5CCOCC5)c(C#N)c4)c3o2)c(O)c1
OUTPUT: < 100 nM

INPUT: Output IC50 of COc1cc(C(=O)N[C@@H]2CCN(C)C2)ccc1-c1cc2nccc(-c3ccc(OC4CCOCC4)c(C#N)c3)c2o1
OUTPUT: < 100 nM

INPUT: Supply recorded IC50 for COc1cc(C(=O)O)ccc1-c1cc2nccc(-c3ccc(NC4CCOCC4)c(C#N)c3)c2o1 here.
OUTPUT: < 100 nM

INPUT: Write down IC50 measured for item CN(CCO)C(=O)c1ccc(-c2cc3ncc(F)c(-c4ccc(OC5CCOCC5)c(C#N)c4)c3o2)c(F)c1
OUTPUT: < 100 nM
